// data source = patent US4874869A

- Test system: sorbitol accumulation in the lens and the sciatic nerve
- Assay details: Reduction or inhibition of sorbitol accumulation in the lens and the sciatic nerve of streptozotocin-induced diabetic rats
- Assay type: in vivo, rat
- Setup conditions: lens; 1 mg/kg oral, 4, 8 and 25 h after streptozotocin; vs no compound
Each entry below carries its recorded Inhibition of sorbitol accumulation.
Form entry: value (%) — number only.

*Q* Quick one: Inhibition of sorbitol accumulation for CC1CC2(NC(=O)NC2=O)c2cc(F)ccc2O1 (stereo not shown) ?
*A* 80

*Q* Quick one: Inhibition of sorbitol accumulation for CC1(C)CC2(NC(=O)NC2=O)c2cc(F)ccc2O1 (stereo not shown) ?
*A* 58

*Q* Quick one: Inhibition of sorbitol accumulation for CC1(C)CC2(NC(=O)NC2=O)c2cc(Cl)ccc2O1 (stereo not shown) ?
*A* 60

*Q* Quick one: Inhibition of sorbitol accumulation for O=C1NC(=O)C2(CCOc3ccc(F)cc32)N1 (stereo not shown) [reference compound] ?
*A* 41
